- SUBJECT OF TEST: T1, ZFP SBS#1473 (synthetic)
- T1 chain: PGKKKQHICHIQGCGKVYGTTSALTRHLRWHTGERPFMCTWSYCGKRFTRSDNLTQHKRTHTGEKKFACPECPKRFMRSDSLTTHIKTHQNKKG
- METHOD: EMSA
- APPLIED CONDITIONS: tags: MBP fusion
READOUT TYPE: Kd (nM)
Quick note: give the figure in nM, leave out the unit.

Identify the reported Kd for the following entry. TTGAAGGTT (dsDNA) DNA 1: TTGAAGGTT DNA 2: AACCTTCAA
0.47

The measured values listed here are drawn from patent US20030068675.
